# tgt: Glycogen synthase kinase-3 (Homo sapiens, UniProt P49840+P49841)
# assay-protocol: Inhibition of human GSK3 using biotinylated GSP2 substrate by flashplate assay
# Assay type: protein assay
quantity-kind: IC50

COc1cccc(OC)c1C(=O)Nc1c[nH]nc1C(=O)O
> 10000 nM
CO[C@H]1CC[C@H](NC(=O)c2n[nH]cc2NC(=O)c2ccc(OC(F)F)cc2)CC1
< 5 nM
CO[C@H]1CC[C@H](NC(=O)c2n[nH]cc2NC(=O)c2ccccc2)CC1
< 5 nM
CO[C@H]1CC[C@H](NC(=O)c2n[nH]cc2NC(=O)c2ccc(N3CCN(C)CC3)cc2)CC1
< 5 nM
CO[C@H]1CC[C@H](NC(=O)c2n[nH]cc2NC(=O)c2ccccc2F)CC1
< 5 nM
CO[C@H]1CC[C@H](NC(=O)c2n[nH]cc2NC(=O)c2cc3ccccc3o2)CC1
< 5 nM
CO[C@H]1CC[C@H](NC(=O)c2n[nH]cc2NC(=O)c2cc(F)cc(F)c2)CC1
< 5 nM
CO[C@H]1CC[C@H](NC(=O)c2n[nH]cc2NC(=O)c2cc(Cl)cc(Cl)c2)CC1
< 5 nM
CO[C@H]1CC[C@H](NC(=O)c2n[nH]cc2NC(=O)c2cc3ccccn3n2)CC1
< 5 nM
CO[C@H]1CC[C@H](NC(=O)c2n[nH]cc2NC(=O)c2ccccc2C(F)(F)F)CC1
< 13 nM
COc1cccc(OC)c1C(=O)Nc1c[nH]nc1C(=O)N[C@H]1CC[C@H](OC)CC1
< 5 nM
COc1ccccc1C(=O)Nc1c[nH]nc1C(=O)N[C@H]1CC[C@H](OC)CC1
< 13 nM
CO[C@H]1CC[C@H](NC(=O)c2n[nH]cc2NC(=O)c2ccc(-c3ccccc3)o2)CC1
< 5 nM

Recorded values, source ChEMBL document CHEMBL3352013.
